Task for the reader: assign each of the following compounds its reported normalized growth.
experiment: chemical genetic growth profiling, strain panel (AID 1159580);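 further: tested at 20 µM; growth read once vehicle control cultures reached saturation at 30 °C; 1 = growth at the plate median or of vehicle wells; lower values mean less growth of the strain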; conditions: S. cerevisiae deletion strains, growth OD, locus YKR026C, strain gcn3, hits give low values
Hit rate of the full screen: of about 5,500 compounds, about 2,000 (36%) were called active. Not shown: some 18% with an inconclusive outcome. The list shows a part of the results.

Reference set (5 entries):
Compound	normalized growth
Nc1ccc(S(=O)(=O)c2ccc(N)cc2)cc1	0.99 (inactive)
COc1cccc2c1C(=O)c1c(O)c3c(c(O)c1C2=O)C[C@@](O)(C(C)=O)C[C@@H]3O[C@H]1C[C@H](N)[C@H](O)[C@H](C)O1	0.971 (inactive)
CC1(C)CC[C@]2(C(=O)O)CC[C@]3(C)C(=CCC4[C@@]5(C)CC[C@@H](O)C(C)(C)C5CC[C@]43C)C2C1 (stereo not given in full)	1.02 (inactive)
C#C[C@]1(OC(C)=O)CCC2C3CCC4=CC(=O)CC[C@@H]4C3CC[C@@]21C (stereo not given in full)	0.984 (inactive)
CC(=O)NC(C(=O)O)C(C)(C)SN=O (stereo not given)	0.989 (inactive)

Record normalized growth per entry; entries follow.
1. Nc1c2c(nc3ccccc13)CCCC2
2. CCOC(=O)OC(C)OC(=O)C1N2C(=O)C(NC(=O)[C@H](N)c3ccccc3)C2SC1(C)C (stereo not given in full)
3. CCOc1ccc2nc3cc(N)ccc3c(N)c2c1
4. NNc1nncc2ccccc12

1. 0.986 (inactive)
2. 1.01 (inactive)
3. 0.864 (active)
4. 0.998 (inactive)

Record normalized growth for all entries; do not skip any.
1. NCCC(=O)N[C@@H](Cc1cnc[nH]1)C(=O)O
2. Cc1cc(O)ccc1Cl
3. Cc1ccc(S(=O)(=O)NC(=O)NN2CC3CCCC3C2)cc1 (stereo not given)
4. CCC(C)C(=O)O[C@H]1[C@H](O)C2C(CN3CC(C)CCC3[C@@]2(C)O)C2C[C@]34O[C@]5(O)C(OC(=O)C(C)(O)CC)CC[C@@]3(C)C5C(OC(C)=O)[C@@H](OC(C)=O)C4[C@@]21O (stereo not given in full)
5. CC1=NS(=O)(=O)c2cc(Cl)ccc2N1
6. COc1ccc2c3c([nH]c2c1)C(C)=NCC3
7. CC(C)(Sc1cc(C(C)(C)C)c(O)c(C(C)(C)C)c1)Sc1cc(C(C)(C)C)c(O)c(C(C)(C)C)c1
8. Nc1c2c(nc3ccccc13)CCCC2O (stereo not given)

1: 1.01 (inactive); 2: 1.01 (inactive); 3: 0.978 (inactive); 4: 1.01 (inactive); 5: 0.958 (inactive); 6: 1.01 (inactive); 7: 0.987 (inactive); 8: 1.01 (inactive)

Record normalized growth per entry; entries follow.
1. CC1OC(=O)C(C(C)C)NC(=O)C(C(C)C)OC(=O)C(C(C)C)NC(=O)C(C)OC(=O)C(C(C)C)NC(=O)C(C(C)C)OC(=O)C(C(C)C)NC(=O)C(C)OC(=O)C(C(C)C)NC(=O)C(C(C)C)OC(=O)C(C(C)C)NC1=O (stereo not given)
2. C#C[C@]1(O)CCC2C3CCC4=CC(=O)CC[C@@H]4C3CC[C@@]21CC (stereo not given in full)
3. CNC(=O)O/N=C\C(C)(C)SC

1. 0.65 (active)
2. 1 (inactive)
3. 1 (inactive)
